Details: human, serum;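 note: acute human liver injury from clinical signs plus serum ALT or AST above 6 N or alkaline phosphatase above 1.7 N, covering cytolytic, cholestatic and mixed forms, value counts references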
Hi, to clarify the labels: criterion met covers Hepatotoxicity (acute) from 2 upward, criterion not met covers anything below 2.

{"compound": "COC(=O)c1nc2cc(Cl)c3cccnc3c2o1", "cat": "criterion not met"}
{"compound": "C[C@H]1O[C@@H](O[C@H]2[C@@H](O)C[C@H](O[C@H]3[C@@H](O)C[C@H](O[C@H]4CC[C@@]5(C)[C@H](CC[C@@H]6[C@@H]5C[C@@H](O)[C@]5(C)[C@@H](C7=CC(=O)OC7)CC[C@]65O)C4)O[C@@H]3C)O[C@@H]2C)C[C@H](O)[C@@H]1O", "cat": "criterion not met"}
{"compound": "CSc1ccc2c(c1)N(CCC1CCCCN1C)c1ccccc1S2 (stereo unspecified)", "cat": "criterion met"}
{"compound": "CC(C)(Oc1ccc(Cl)cc1)C(=O)NC(=O)NCN1CCOCC1 [PLAFIBRIDE]", "cat": "criterion not met"}
{"compound": "CC(C)[C@H](N)C(=O)OCCOCn1cnc2c(=O)[nH]c(N)nc21", "cat": "criterion not met"}
{"compound": "O=C1CN(/N=C/c2ccc(-c3ccc([N+](=O)[O-])cc3)o2)C(O)=N1", "cat": "criterion met"}
{"compound": "CO/N=C(\\C(=O)N[C@@H]1C(=O)N2C(C(=O)O)=C(COC(N)=O)CS[C@H]12)c1ccco1", "cat": "criterion not met"}
{"compound": "Fc1ccccc1C1=NCC(=S)N(CC(F)(F)F)c2ccc(Cl)cc21", "cat": "criterion not met"}
{"compound": "CN(C)CCC=C1c2ccccc2C=Cc2ccccc21", "cat": "criterion not met"}
{"compound": "COc1ccc2cc(CCC(C)=O)ccc2c1", "cat": "criterion not met"}
{"compound": "O=C1Cc2cc(CCN3CCN(c4nsc5ccccc45)CC3)c(Cl)cc2N1", "cat": "criterion not met"}
{"compound": "O=C(O)C[C@H](O)C[C@H](O)/C=C/c1c(C2CC2)nc2ccccc2c1-c1ccc(F)cc1", "cat": "criterion not met"}
{"compound": "Clc1ccc(C(c2ccccc2Cl)C(Cl)Cl)cc1 (stereo unspecified)", "cat": "criterion not met"}
{"compound": "C[C@@H]1CN(c2c(F)c(N)c3c(=O)c(C(=O)O)cn(C4CC4)c3c2F)C[C@H](C)N1", "cat": "criterion not met"}
{"compound": "CO[C@@H](/C(C)=C/C=C/C(C)=C/c1coc(C)n1)[C@@H](C)[C@@H]1C[C@H](O)[C@@]2(C)O[C@@H]2/C=C/[C@@H](C)[C@H]2C[C@H](CC(=O)O2)C[C@@H]2O[C@H]2C(=O)O1", "cat": "criterion not met"}
{"compound": "CC(=O)[C@]1(O)Cc2c(O)c3c(c(O)c2[C@@H](O[C@H]2C[C@H](N)[C@H](O)[C@H](C)O2)C1)C(=O)c1ccccc1C3=O", "cat": "criterion not met"}
{"compound": "CC(C)(S)[C@@H](N)C(=O)O", "cat": "criterion met"}
{"compound": "CC(C)C[C@H](NC(=O)[C@@H](O)[C@H](N)Cc1ccccc1)C(=O)O", "cat": "criterion not met"}
{"compound": "Cc1cc2c(C(C)C)c(O)c(O)c(C=O)c2c(O)c1-c1c(C)cc2c(C(C)C)c(O)c(O)c(C=O)c2c1O", "cat": "criterion not met"}
{"compound": "C[S+](CC[C@H](N)C(=O)[O-])C[C@H]1O[C@@H](n2cnc3c(N)ncnc32)[C@H](O)[C@@H]1O (stereo partly specified)", "cat": "criterion not met"}
{"compound": "CC1=C(/C=C/C(C)=C/C=C/C(C)=C/CO)C(C)(C)CCC1", "cat": "criterion not met"}
{"compound": "COc1cccc2c1C(=O)c1c(O)c3c(c(O)c1C2=O)C[C@@](O)(C(=O)CO)C[C@@H]3O[C@H]1C[C@H](N)[C@@H](O)[C@H](C)O1 [EPIRUBICIN]", "cat": "criterion not met"}
{"compound": "Cc1c(O)cccc1C(=O)N[C@@H](CSc1ccccc1)[C@H](O)CN1C[C@H]2CCCC[C@H]2C[C@H]1C(=O)NC(C)(C)C", "cat": "criterion met"}
{"compound": "C[C@]12CCC(=O)C=C1CC[C@@H]1[C@@H]2CC[C@@]2(C)[C@H]1CC[C@]2(C)O", "cat": "criterion met"}
{"compound": "O=C1c2cccc(O)c2C(=O)c2c(O)cccc21", "cat": "criterion not met"}

Where do the numbers come from? From ChEMBL document CHEMBL3137667.
